test: biolocalization of the radionuclide in rats (tissue distribution after tail vein injection); type: in vivo, male Sprague Dawley rats; settings: Sm-153; rats; 2 hours; average of 5 rats
QUANTITY: % Dose in Urine

*Q* Endpoint output: % Dose in Urine of O=P([O-])(O)CN(CCN(CP(=O)([O-])O)CP(=O)(O)O)CP(=O)([O-])O.[153Sm+3] . Value?
*A* 49 % Dose

*Q* Moving on to O=P(O)(O)CN(CCO)CCN(CP(=O)(O)O)CP(=O)(O)O.[153Sm+3]
*A* 50 % Dose

*Q* Moving on to O=P(O)(O)CN(CCN(CCN(CP(=O)(O)O)CP(=O)(O)O)CCN(CP(=O)(O)O)CP(=O)(O)O)CP(=O)(O)O.[153Sm+3]
*A* 65 % Dose

*Q* Moving on to O=P(O)(O)CN(CCN(CP(=O)(O)O)CP(=O)(O)O)CCN(CP(=O)(O)O)CP(=O)(O)O.[153Sm+3]
*A* 74 % Dose

Data origin, for the record: patent US5300279A
